measurement_target: T1, murine PRLR (Biacore antigen) (murine, UniProt Q08501 20-229, limits assumed)
T1 construct: also called muPRLR
T1 sequence (looked up): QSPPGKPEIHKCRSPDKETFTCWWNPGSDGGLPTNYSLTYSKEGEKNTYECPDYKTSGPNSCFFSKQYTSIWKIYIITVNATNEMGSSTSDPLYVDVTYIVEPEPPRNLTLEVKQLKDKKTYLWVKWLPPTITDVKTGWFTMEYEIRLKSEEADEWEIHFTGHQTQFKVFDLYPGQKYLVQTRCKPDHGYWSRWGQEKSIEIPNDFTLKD
test_protocol: SPR Biacore
This listing pairs binders with measured kon.
State the value, then name its unit.

Please review the following examples before continuing.
binder | kon
Ab55 (antibody, human IgG1, kappa, V domains shown, humanized from Ab7 (back mutations on Ab39); G1; also called Ab4 HC.1a.2 and Ab4 LC.1a) VH: EVQLVQSGAEVKKPGSSVKVSCKASGYTFTSYWIHWVRQAPGQGLEWIGEIDPSDSYTNYNQKFKGRATLTVDRSSSTAYMELSSLRSEDTAVYYCGRSFFTNWFAYWGQGTLVTVSS VL: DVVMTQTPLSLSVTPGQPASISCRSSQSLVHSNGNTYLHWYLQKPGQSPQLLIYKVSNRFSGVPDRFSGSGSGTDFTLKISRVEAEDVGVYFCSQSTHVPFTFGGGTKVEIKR | 44000 M⁻¹ s⁻¹
Ab48 (antibody, human IgG1, kappa, V domains shown, humanized from Ab8; G1; also called Ab3 HC.1a and Ab3 LC.1a) VH: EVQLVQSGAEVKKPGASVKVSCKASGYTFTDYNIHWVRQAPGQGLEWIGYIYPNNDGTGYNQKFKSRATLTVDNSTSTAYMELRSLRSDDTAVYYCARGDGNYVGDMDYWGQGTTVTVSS VL: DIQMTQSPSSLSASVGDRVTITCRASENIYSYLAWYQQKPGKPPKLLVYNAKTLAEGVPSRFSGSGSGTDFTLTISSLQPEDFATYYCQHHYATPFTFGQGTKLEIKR | 217000 M⁻¹ s⁻¹
chAb6 (antibody, human IgG1, kappa, V domains shown, chimeric, murine variable and human G1/kappa constant regions) VH: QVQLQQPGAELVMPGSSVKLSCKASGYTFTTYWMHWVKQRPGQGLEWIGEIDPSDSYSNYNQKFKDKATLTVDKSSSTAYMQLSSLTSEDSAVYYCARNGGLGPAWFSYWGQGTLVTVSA VL: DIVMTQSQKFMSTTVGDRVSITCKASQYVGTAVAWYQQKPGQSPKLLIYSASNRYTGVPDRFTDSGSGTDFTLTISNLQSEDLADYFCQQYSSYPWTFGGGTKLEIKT | 591000 M⁻¹ s⁻¹

Request: Look up kon: Ab36 (antibody, human IgG1, kappa, V domains shown, humanized from Ab7; G1; also called Ab4 HC.1 and Ab4 LC.1a) VH: EVQLVQSGAEVKKPGSSVKVSCKASGYTFTSYWIHWVRQAPGQGLEWMGEIDPSDSYTNYNQKFKGRVTITADKSTSTAYMELSSLRSEDTAVYYCARSFFTNWFAYWGQGTLVTVSS VL: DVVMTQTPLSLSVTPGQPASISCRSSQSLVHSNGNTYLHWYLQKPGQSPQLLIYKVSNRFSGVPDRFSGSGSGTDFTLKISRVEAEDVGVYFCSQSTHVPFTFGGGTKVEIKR
Response: 49800 M⁻¹ s⁻¹

Request: Continue with Ab30 (antibody, human IgG1, kappa, V domains shown, humanized from Ab5; G1; also called Ab2 HC.1a and Ab2 LC.1a) VH: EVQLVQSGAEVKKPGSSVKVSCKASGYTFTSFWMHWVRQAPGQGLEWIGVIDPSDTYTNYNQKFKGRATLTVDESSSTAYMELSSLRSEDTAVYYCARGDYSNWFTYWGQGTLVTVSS VL: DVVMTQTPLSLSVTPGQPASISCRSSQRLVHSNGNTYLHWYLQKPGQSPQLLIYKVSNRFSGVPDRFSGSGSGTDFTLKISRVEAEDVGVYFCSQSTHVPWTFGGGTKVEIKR
Response: 140000 M⁻¹ s⁻¹

Recorded values, source patent US20170022281A1.
